System: Staphylococcus epidermidis
TEST: Antibacterial activity against Staphylococcus epidermidis ATCC 35984 after 24 hrs by resazurin dye based fluorescence assay
Format: functional
MEASUREMENT CONTEXT: ATCC 35984, 24 h
ENDPOINT: MIC (mg/L)
Provide the reading as a plain figure in mg/L.

Form field MIC, entry O=C(c1cc(Cl)c(Cl)[nH]1)c1c(O)ccc(C(c2csc(-c3ccccc3O)n2)c2ccc(O)c(C(=O)c3cc(Cl)c(Cl)[nH]3)c2O)c1O : 2

GET /value?item= O=C(c1cc(Cl)c(Cl)[nH]1)c1c(O)ccc(Cc2ccc(O)c(C(=O)c3cc(Cl)c(Cl)[nH]3)c2O)c1O &field=MIC returns 32

// sample O=C(c1cc(Cl)c(Cl)[nH]1)c1c(O)cccc1O , its MIC was 4

# MIC of Cc1onc(-c2ccccc2)c1C(=O)N[C@@H]1C(=O)N2[C@@H]1SC(C)(C)[C@@H]2C(=O)O = 2

The recorded MIC for entry O=C(c1cc(Cl)c(Cl)[nH]1)c1c(O)ccc(Cc2cc(C(c3csc(-c4ccccc4O)n3)c3ccc(O)c(C(=O)c4cc(Cl)c(Cl)[nH]4)c3O)c(O)c(C(=O)c3cc(Cl)c(Cl)[nH]3)c2O)c1O (stereo not given) equals 2
